- runDescription: Cytotoxicity against human HeLa cells assessed as cell viability at 10 uM after 24 hrs by trypan blue assay relative to bleomycin
- Format: cell-based
- measurementContext: read-out: Activity

# compound, unitTag, viability at 24 h, 10 µM
data = [
    ("O=C1C(=O)N(CC(CO)N[C@@H]2C(=O)N(c3ccc(Cl)cc3)[C@@H]2/C=C/c2ccccc2)c2ccc(Cl)cc21 (relative stereo)", "%", 30),
]
